Data credit: the supplement of paper PMC8728848

In this section, each of the binders is paired with its reported glycan array binding signal (z-score).
# Tgt: Gal(b1-3)GlcNAc(b1-6)Gal(b1-4)GlcNAc
# Test: glycan array binding signal (z-score within array); higher = stronger binding
# Run Conditions: glycan notation: IUPAC condensed, linker removed
About 410 targets per protein were measured; listed, in parts, are those with the strongest signals and a random draw of the rest.
Measured Attribute: glycan array binding signal (z-score)

Binder: CBM13 2a (Mycobacterium tuberculosum), P64849 (protein) DGPVQLKSRLGDVCLDAPSGSWFSPLVINPCNGTDFQRWNLTDDRQVESVAFPGECVNIGNALWARLQPCVNWISQHWTVQPDGLVKSDLDACLTVLGGPDPGTWVSTRWCDPNAPDQQWDSVPLEHHHHHH
Numeric Value: -0.345
--
Binder: Loc1 (Escherichia coli) (protein) APCALTNVGEQRGTYILKPLSMKGNLTAEKIENTGNIIECTDLQETTNAIKVHFLTQNALKFKVGSRHYIINFPFEYDGKKIELPGKSSYNLEEMLSAINFTIPYSIASVSDSSNTADIFPGTPFPLLFEIEVSSCTGNNTNCNSVRFNYNLNTILQVNLMTHHHHHH
Numeric Value: 0.216
--
Binder: BC2L-A (Burkholderia cenocepacia), Q1BKJ8_BURCA (protein) ADSQTSSNRAGEFSIPPNTDFRAIFFANAAEQQHIKLFIGDSQEPAAYHKLTTRDGPREATLNSGNGKIRFEVSVNGKPSATDARLAPINGKKSDGSPFTVNFGIVVSEDGHDSDYNDGIVVLQWPIG
Numeric Value: -0.219
--
Binder: Epa13 (Candida glabrata) (protein) MGSSHHHHHHSSGLVPRGSHMASDSSENGYAHGCSPSIRAKLKPGLSMEIYSYALRPTDDHCWDSAYLDPMFPRTGYLTHKLLGKAEGIIGPLNFLAKNPACIPAVSTLPLAFHFPKPFTITNFTMLLYGYLSPKKTGKYTFKLLADDLLLMNFGADNAFDCCSHDATKDNIGEYVAYSVWPGVNKNVTVYLESGIYYPLRLFFNNRDAIAQLDFAYYFNDSPIRQTDFSGMFFSIPDSVKCPANI
Numeric Value: -0.113
--
Binder: Pwp1 (Candida glabrata) (protein) MGSSHHHHHHSSGLVPRGSHMASANPISITNVCQFPDNWARTAGFQATTVRLGLTIASNTYKELLNYPGLFNFATQKATVTQPNFSISGFPFFTGLYGLTVWPINLLVELQGYFVPPESGNYTFTLQGSDDAAILFFANPSTFACGSQNDWPQPREADITVTDTLVPSRTLYLVKGVAYPIRIAYYNGSGDGKLNVSFKDPSGTTHTDWKGYVWQYSNTCSTCTYT
Numeric Value: -1.46
--
Binder: AFCNVH (Aspergillus fumigatus) (protein) MSLRGFHTTCDTIVLKDKHILSSRCKRPDGTYSFSEIDLNDCLGNNNGKFVWGGESFVDSASQVNLALEGGEGRPMLHAQLNDWHGSVQSASVNLGECIQNEAGGLEYMHC
Numeric Value: -0.391
